Cited source for all entries: paper PMC6719172

molecular target: CpLIP2 lipase (Candida parapsilosis, UniProt Q8NIN8); assay: Quenching of CpLIP2 intrinsic tryptophan fluorescence by flavonols (Stern–Volmer, Lehrer, van't Hoff analysis); type: binding; conditions: 318 K; CpLIP2 2.5 µM, pH 7.0; flavonol 2.5–25 µM (GAL 2.5–17.5 µM)
Sequence (Q8NIN8 entry or part of it): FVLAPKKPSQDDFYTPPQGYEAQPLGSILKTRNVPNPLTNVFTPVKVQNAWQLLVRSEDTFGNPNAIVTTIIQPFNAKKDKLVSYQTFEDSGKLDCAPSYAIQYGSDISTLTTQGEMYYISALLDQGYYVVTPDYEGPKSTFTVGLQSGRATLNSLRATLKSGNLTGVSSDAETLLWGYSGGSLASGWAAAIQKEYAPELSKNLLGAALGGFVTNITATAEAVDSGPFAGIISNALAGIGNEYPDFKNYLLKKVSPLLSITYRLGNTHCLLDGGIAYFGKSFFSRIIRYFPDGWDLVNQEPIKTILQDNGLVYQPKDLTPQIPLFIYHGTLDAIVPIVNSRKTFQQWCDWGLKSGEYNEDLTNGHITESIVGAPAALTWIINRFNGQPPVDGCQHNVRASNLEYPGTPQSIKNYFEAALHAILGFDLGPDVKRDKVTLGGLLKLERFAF
Would you mind telling me the reported KSV (Stern–Volmer quenching constant) of each entry?

Record KSV (Stern–Volmer quenching constant) per entry; entries follow.
1. O=c1c(O)c(-c2cc(O)c(O)c(O)c2)oc2cc(O)cc(O)c12 [MYR, myricetin]
2. O=c1c(O)c(-c2ccccc2)oc2cc(O)cc(O)c12 [GAL, galangin]
3. O=c1c(O)c(-c2ccc(O)c(O)c2)oc2cc(O)cc(O)c12 [QUE, quercetin]
4. O=c1c(O)c(-c2ccc(O)cc2)oc2cc(O)cc(O)c12 [KAE, kaempferol]

Ans:
["1.2 ± 0.4 × 10^4 L·mol^−1", "2.1 ± 0.8 × 10^4 L·mol^−1", "1.6 ± 0.6 × 10^4 L·mol^−1", "1.8 ± 0.7 × 10^4 L·mol^−1"]
